Each entry below carries its reported inhibition of growth at 1 µM.
- Experimental Protocol: Antiproliferative activity against human HCT116 cells assessed as reduction in cell viability at 1 uM after 72 hrs by ATPlite assay
- Assay type: functional
- Experimental Context: HCT-116, 72 h, read-out: GI

| Compound | inhibition of growth at 1 µM / % |
| --- | --- |
| O=C1C=C2C(I)=C[C@@H]3C[C@@]2(O1)[C@H]1CCCCN31 | 80.9 |
| CCN(CC)c1ccc(C#CC2=C[C@@H]3C[C@@]4(OC(=O)C=C24)[C@H]2CCCCN32)cc1 | 98.2 |
| O=C1C=C2C(C#CC3C=CCCC3)=C[C@@H]3C[C@@]2(O1)[C@H]1CCCCN31 (some centres undefined) | 3.3 |
| O=C1C=C2C(c3ccc(-c4ccccc4)cc3)=C[C@@H]3C[C@@]2(O1)[C@H]1CCCCN31 | 5.4 |
